Give inhibition for every item shown.
target: Platelet-activating factor acetylhydrolase 2, cytoplasmic (Homo sapiens) (UniProt Q99487); experiment: inhibition of cytoplasmic PAF acetylhydrolase 2 – biochemical, fluorescence polarization, human, primary screen (AID 492956); conditions: recombinant PAFAH2, FP-rhodamine activity probe, at 3.39 µM, hits give high values;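 note: inhibitors block probe labeling of enzyme so polarization drops; 0% = enzyme with DMSO and 100% = wells lacking PAFAH2 protein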
Screen size: about 340,000 compounds; about 3,300 (0.97%) were called active. The sample as a whole holds a higher share of actives than the screen did.
Report the figure in % without appending any unit label.

Reported inhibition for CC(C)NC(=O)NC(=O)COC(=O)c1ccc(NC(=O)CC#N)cc1 was 14.3

Reported inhibition for C=C1c2cccc(OC)c2O[C@H](C(=O)OCC)[C@@H]1CCCCCC was 2.29

Reported inhibition for Cc1cnc(NC(=O)C2CCCC2)s1 was 1.44

====

target: Platelet-activating factor acetylhydrolase 2, cytoplasmic (Homo sapiens); assay: inhibition of cytoplasmic PAF acetylhydrolase 2 – biochemical, fluorescence polarization, human, primary screen (AID 492956); details: recombinant PAFAH2, FP-rhodamine activity probe, at 3.39 µM, hits give high values
The whole screen tested about 340,000 compounds, of which about 3,300 (0.97%) were called active. Many of the other results were omitted from the sample, so actives are more common in it than they were.
REPORTED METRIC: inhibition (%)
Report the figure in % without appending any unit label.

Reported inhibition for OC(CNC1CCCC1)COc1ccc(F)cc1 (centres undefined) was -6.14

Reported inhibition for O=C1C=C(NS(=O)(=O)c2ccccc2)C(=O)c2ccccc21 was 5.32

Reported inhibition for COc1cc(NC(=O)COC(=O)c2cnc(C)cn2)c(C)cc1[N+](=O)[O-] was 4

Reported inhibition for O=C(NC1=CC(=O)c2ccccc2C1=O)c1ccccc1 was 45.2

====

biological target: Platelet-activating factor acetylhydrolase 2, cytoplasmic (Homo sapiens); test: inhibition of cytoplasmic PAF acetylhydrolase 2 – biochemical, fluorescence polarization, human, primary screen (AID 492956); conditions: recombinant PAFAH2, FP-rhodamine activity probe, at 3.39 µM, hits give high values
The campaign covered roughly 340,000 compounds. About 3,300 (0.97%) were called active. The list comes from a sample in which actives are over-represented; it also holds close analogues and randomly drawn compounds.
REPORTED METRIC: inhibition (%)
Report the figure in % without appending any unit label.

Reported inhibition for COc1ccccc1NC(=O)N(O)C1(C#N)CCCCC1 was 17.2

Reported inhibition for CCCCCN(C(=O)CCC(=O)OCCOc1ccc(OC)cc1)c1c(N)n(CCCC)c(=O)[nH]c1=O was 0.6

Reported inhibition for O/N=C(\C[n+]1ccccc1)c1ccc(Br)cc1 was -4.24

Reported inhibition for CC(=O)Nc1ccc(S(=O)(=O)NC(C)C(=O)OCC(=O)NC2CCCC2)cc1 (stereo not given) was -5.65

Reported inhibition for CCC1C(C#N)=C(SC)NC2=C1C(=O)CC(C)(C)C2 (stereo not given) was -6.12

====

Give inhibition for every item shown.
target: Platelet-activating factor acetylhydrolase 2, cytoplasmic (Homo sapiens); assay: inhibition of cytoplasmic PAF acetylhydrolase 2 – biochemical, fluorescence polarization, human, primary screen (AID 492956); conditions: recombinant PAFAH2, FP-rhodamine activity probe, at 3.39 µM, hits give high values;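 note: inhibitors block probe labeling of enzyme so polarization drops; 0% = enzyme with DMSO and 100% = wells lacking PAFAH2 protein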
Hit rate of the full screen: of about 340,000 compounds, about 3,300 (0.97%) were called active. The list comes from a sample in which actives are over-represented; it also holds close analogues and randomly drawn compounds.

Reported inhibition for Cc1ccc(C)c(S(=O)(=O)Nc2cc(C)on2)c1 was 0.2% (inactive)

Reported inhibition for CCn1c(/C=N/NC(=O)c2ccc(OC)cc2)nc2ccccc21 was 41.7% (active)

Reported inhibition for COc1ccc(C(C(=O)NCc2ccccc2)N(Cc2cccs2)C(=O)c2cnccn2)cc1 (stereo not given) was 2.03% (inactive)

Reported inhibition for CCOc1ccc(NC(=O)c2ccc(NC(=O)COC(=O)c3ccc(NC(=O)CC#N)cc3)cc2)cc1 was -53.2% (inactive)

Reported inhibition for CCC(C)(C)c1ccc(Oc2ccc(NC(=O)COC(=O)C3=COCCO3)cc2)cc1 was 55.4% (active)

====

molecular target: Platelet-activating factor acetylhydrolase 2, cytoplasmic (Homo sapiens) (UniProt Q99487); assay: inhibition of cytoplasmic PAF acetylhydrolase 2 – biochemical, fluorescence polarization, human, primary screen (AID 492956); settings: recombinant PAFAH2, FP-rhodamine activity probe, at 3.39 µM;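 note: inhibitors block probe labeling of enzyme so polarization drops; 0% = enzyme with DMSO and 100% = wells lacking PAFAH2 protein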
Screen size: about 340,000 compounds; about 3,300 (0.97%) were called active.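 The calls were made as follows: active = inhibition above the mean over all tested compounds plus 3 SD (cut at about 30% in these data); inactive = the rest.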 The list comes from a sample in which actives are over-represented; it also holds close analogues and randomly drawn compounds.
// classify into active, inactive

Kindly provide the recorded test outcome for the following compound: O=[N+]([O-])c1ccc(O)c(/C=N/Nc2ccccc2[N+](=O)[O-])c1 active

Kindly provide the recorded test outcome for the following compound: Cc1ccc(NS(=O)(=O)c2cn(C)c(=O)n(C)c2=O)c(C)c1 inactive

Kindly provide the recorded test outcome for the following compound: CCCOc1ccc(NC(=O)CC2C(=O)N(C)C(=S)N2Cc2ccc3c(c2)OCO3)cc1 (stereo not given) inactive

Kindly provide the recorded test outcome for the following compound: O=C(N/N=C/c1cc([N+](=O)[O-])ccc1O)/C(=C\c1cccs1)NC(=O)c1ccccc1 inactive

Kindly provide the recorded test outcome for the following compound: O=S(=O)(c1ccc(Cl)cc1)c1nc(-c2ccco2)oc1N1CCCCC1 inactive

====

Give inhibition for every item shown.
target: Platelet-activating factor acetylhydrolase 2, cytoplasmic (Homo sapiens); assay: inhibition of cytoplasmic PAF acetylhydrolase 2 – biochemical, fluorescence polarization, human, primary screen (AID 492956); conditions: recombinant PAFAH2, FP-rhodamine activity probe, at 3.39 µM, hits give high values;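 note: inhibitors block probe labeling of enzyme so polarization drops; 0% = enzyme with DMSO and 100% = wells lacking PAFAH2 protein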
The campaign covered roughly 340,000 compounds. About 3,300 (0.97%) were called active. This excerpt belongs to a sample that is enriched for actives.
Report the figure in % without appending any unit label.

Reported inhibition for CCOC(=O)C1CCN(c2c(Nc3cc(C)cc(C)c3)c(=O)c2=O)CC1 was 7.85

Reported inhibition for COCCCNC(=O)c1c(F)c(F)c(F)c(F)c1F was -4.37

Reported inhibition for COCCCN1C(=O)C(=O)/C(=C(/O)c2ccc(S(=O)(=O)N3CCOCC3)cc2)C1c1ccc(F)cc1 (stereo not given) was 1.52

Reported inhibition for CCc1ccc(C(=O)COC(=O)c2ccco2)cc1 was 9.26

Reported inhibition for COc1cccc2c1C(=O)c1c(O)c3c(c(O)c1C2=O)CC(O)(C(C)=NNC(=O)c1ccc(Cl)c(Cl)c1)CC3OC1CC(N)C(O)C(C)O1 (stereo not given) was 49.5

Reported inhibition for CC(CO)(CO)NC(=O)c1ccc(=O)[nH]n1 was -12.6

Reported inhibition for O=C(CNC(=O)c1ccco1)OCC(=O)c1ccccc1 was 4.2

Reported inhibition for CCOC(=O)c1c(-c2ccccc2)oc2cc(Br)c(O)c(C=O)c12 was 6.96

Reported inhibition for COc1ccc(Cl)cc1C(=O)OCC(=O)NCc1cccs1 was 1.83

Reported inhibition for CCOc1ccc(/C=C/C(=O)N(CC)CC(=O)NCc2cccs2)cc1OC was 5.35

Reported inhibition for CC(=O)Nc1ccc(NC(=O)COc2ccc(-c3ccccc3)cc2)cc1 was -5.15

Reported inhibition for CCOC(=O)c1ccc(NC(=O)CNC(=O)c2ccco2)cc1 was 1.1

Reported inhibition for C[C@@H]1CC[C@]2(O[C@@H](CCO)C[C@H](O)[C@H]2O)O1 was -8.93

Reported inhibition for COc1ccc(C(=O)NCC(=O)N/N=C/c2ccc([N+](=O)[O-])o2)cc1OC was 0.4

Reported inhibition for O=C(CN1CCCCCC1)Nc1ccc(Br)cc1Br was 2.02
